# tested_on: DMPK Catalytic Domain (Homo sapiens, UniProt Q09013)
# Construct: For all of them, we expressed and purified the catalytic domain separately; His-tag; made in house; host or cells: Escherichia coli
# Sequence (Q09013 71-339 limits assumed): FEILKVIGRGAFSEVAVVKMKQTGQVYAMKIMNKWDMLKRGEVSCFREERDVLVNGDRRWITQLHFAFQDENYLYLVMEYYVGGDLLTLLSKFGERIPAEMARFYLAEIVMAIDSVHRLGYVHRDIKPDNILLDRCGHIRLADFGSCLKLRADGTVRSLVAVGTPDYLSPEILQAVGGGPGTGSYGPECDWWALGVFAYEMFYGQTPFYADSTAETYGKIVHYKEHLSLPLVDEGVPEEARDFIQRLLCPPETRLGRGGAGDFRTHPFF
# measurement_protocol: Differential Scanning Fluorimetry (DSF) Tm shift
# Type: binding
# condition_summary: 2 µM protein, 10 µM inhibitor, average of 3 experiments, each in duplicate
observed_property: Melting temperature (Tm) shift
# do not omit the unit; it follows the number

Solved entries:
CN(C)c1nc2c(Br)c(Br)c(Br)c(Br)c2[nH]1 [Casein Kinase II Inhibitor II, DMAT]    0.4 degrees Celcius
CS(=O)(=O)O.Cn1cc(C2=C(c3cn(CCCSC(=N)N)c4ccccc34)C(=O)NC2=O)c2ccccc21 [Ro-31-8220]    4.8 degrees Celcius
N#CCCc1ccc2c(c1)-c1[nH]c3ccc([N+](=O)[O-])cc3c1CC(=O)N2 [Alsterpaullone, 2-Cyanoethyl]    3.4 degrees Celcius
O=C1c2ccccc2-[n+]2ccc3c([nH]c4ccccc43)c21 [Fascaplysin, Synthetic, Fascaplysin]    0.4 degrees Celcius
N#Cc1cnc2cnc(NCc3cccnc3)cc2c1Nc1ccc(F)c(Cl)c1 [Tpl2 Kinase Inhibitor]    1.4 degrees Celcius

State recorded Melting temperature (Tm) shift for all listed molecules.
1. O=C1Nc2ccccc2C1=C1Nc2ccccc2C1=NOCCC(O)CO (centres unmarked) [Indirubin Derivative E804]
2. CCn1cnc2c(Nc3cccc(Cl)c3)nc(N[C@H]3CCCC[C@H]3N)nc21 [Cdk1 Inhibitor, CGP74514A]
3. O=C(Nc1cccc(Nc2nccc(Nc3cccc(C(F)(F)F)c3)n2)c1)C1CC1 [Aurora Kinase Inhibitor III]

1: 0.6 degrees Celcius; 2: 1.4 degrees Celcius; 3: 0.9 degrees Celcius

State recorded Melting temperature (Tm) shift for all listed molecules.
1. O=C1NC(=O)C(=Cc2cccc(C(F)(F)F)c2)S1 [PIM1/2 Kinase Inhibitor V]
2. CC(=O)O/N=C1/C(=C2/C(=O)Nc3cc(Br)ccc32)Nc2ccccc21 [GSK-3 Inhibitor X]
3. O=C1NC(=O)C(c2c[nH]c3ccccc23)=C1c1c[nH]c2ccccc12 [Bisindolylmaleimide IV]
4. CCCCc1c(-c2ccc(O)cc2)[nH]c2nccnc12 [Aloisine A, RP107, Aloisine A]

["0.1 degrees Celcius", "0.5 degrees Celcius", "2.7 degrees Celcius", "1.4 degrees Celcius"]

State recorded Melting temperature (Tm) shift for all listed molecules.
1. c1cc(-c2cnn3cc(-c4ccc(OCCN5CCCCC5)cc4)cnc23)ccn1 [AMPK Inhibitor, Compound C]
2. O=C1Nc2ccc(Cl)cc2C1=Cc1cc(Cl)c(O)c(Cl)c1 [PKR Inhibitor, Negative Control]
3. CC(C)n1cnc2c(NCc3ccccc3O)nc(NCCCO)nc21 [Cdk Inhibitor, p35]
4. COc1cc2ncnc(Nc3ccc(Oc4ccccc4)cc3)c2cc1OC [Src Kinase Inhibitor I]
5. O=C1NC(=O)c2c1c1c3ccccc3n3c1c1c2c2ccccc2n1C1CCC3O1 [SB 218078]
6. O=C1Cc2c([nH]c3ccc([N+](=O)[O-])cc23)-c2ccccc2N1 [Alsterpaullone]

1.5 degrees Celcius
3.2 degrees Celcius
0.3 degrees Celcius
0.7 degrees Celcius
15.4 degrees Celcius
1.8 degrees Celcius

State recorded Melting temperature (Tm) shift for all listed molecules.
1. O=C1NC(=O)C(=Cc2ccc3c(c2)OCO3)S1 [PI 3-Kγ Inhibitor VII]
2. CC(C)c1nn(-c2c(Cl)cccc2Cl)c2nc(Cc3ccc(OCCO)cc3)[nH]c(=O)c12 [Cdk/Crk Inhibitor]
3. CN[C@@H]1C[C@H]2O[C@@](C)([C@@H]1OC)n1c3ccccc3c3c4c(c5c6ccccc6n2c5c31)C(=O)N[C@@H]4O [UCN-01]
4. Cc1cc(Nc2nc(-c3ccccc3)nc3ccccc23)n[nH]1 [GSK-3 Inhibitor XIII]
5. Cc1[nH]c(/C=C2\C(=O)Nc3ccc(S(=O)(=O)N(C)c4cccc(Cl)c4)cc32)c(C)c1C(=O)N1CCN(C)CC1 [Met Kinase Inhibitor]
6. COc1ccc2c(c1)c(C1=C(c3c[nH]c4ccccc34)C(=O)NC1=O)cn2CCCN(C)C [Gö 6983]
7. CC(C)n1cnc2c(Nc3cccc(Cl)c3)nc(NCCO)nc21 [Compound 52]

1: 0.3 degrees Celcius; 2: 1.3 degrees Celcius; 3: 5.9 degrees Celcius; 4: 0.5 degrees Celcius; 5: 1.2 degrees Celcius; 6: 1.9 degrees Celcius; 7: 0.0 degrees Celcius
